Origin of measurements: the supplement of paper PMC10567573

# TEST_SUMMARY: protein stability index of a GFP-peptide fusion (GPS, HEK-293T) (PSI 1-6); higher = more stable;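 also: 24-mer peptide tiles fused after GFP, lentivirally expressed, FACS-sorted into six equal bins by GFP/DsRed ratio, decoded by Illumina sequencing, PSI is the read-weighted mean bin number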
# EXPERIMENTAL_SETUP: treatment: DMSO; c terminus: a fixed tail appended
RECORDED_ENDPOINT: protein stability index

>>> value_reported("GQTYVDAGYEVDKIAQNLDFVNLM [CHIT1]")
3.01
>>> value_reported("TLHGVVNESTVCLMSYERRQILHL [TENT5D]")
2.35
>>> value_reported("LCKEMVPLAEQTPLTLQSQPKEPQ [ZSCAN9]")
5
>>> value_reported("FVHGLEDEMYEVRIAAVEALCMLA [INTS4]")
2.34
>>> value_reported("IFDEDHDEMVIVKDIDMFSMCEHH [GCH1]")
3.16
>>> value_reported("SLAQGPDAATTDELSSLGSDSEAN [TBC1D10A]")
5.56
>>> value_reported("LLAWRCTKLSLLAIHGYTVWAHNL [FBXO33]")
3.15
>>> value_reported("DPIIDSWEVVTSMGTQRCDAGVCV [KLHL12]")
3
>>> value_reported("QAAPGALPVSSPEPPPALPPAADA [TRIM55]")
5.46
>>> value_reported("EDIALNKHRSRRKWCFWNSSPAVA [RHOBTB1]")
2.31
>>> value_reported("PATALGTASYPSDGCGADGLRSRV [NOL4L]")
4.39
>>> value_reported("ISLWPREPPPKSGPSLVPGKTPTV [CD207]")
3.06
>>> value_reported("LRALGAQIEKTTNREACRDLSGRR [SDE2]")
4.21

---

# TEST_SUMMARY: protein stability index of a GFP-peptide fusion (GPS, HEK-293T) (PSI 1-6); higher = more stable
# EXPERIMENTAL_SETUP: treatment: DMSO; c terminus: a fixed tail appended
Listed here are sequences together with their documented protein stability index.
RECORDED_ENDPOINT: protein stability index

>>> value_reported("VYNAARDGKLQLLQKLLSGRSREE [FEM1A]")
2.77
>>> value_reported("KEILRTLQDVFCWLPLATLIDEKV [PPEF2]")
2.46
>>> value_reported("DTISTIKSVAWEGGACPAFLPSLR [NCF4]")
2.92
>>> value_reported("LLFDMTTHPVTNTTEKQRLVKKLQ [GOLPH3L]")
2.61
>>> value_reported("RQWPTKSQTDRGASAGKRRCFWLG [SDE2]")
2.9
>>> value_reported("KLSSFYSLKLIKRLYVDKSLNLST [SERPINB5]")
2.46
>>> value_reported("ERRRGPAAGEQLQQQHVSCQVFPE [ATP23]")
4.6

---

# TEST_SUMMARY: protein stability index of a GFP-peptide fusion (GPS, HEK-293T) (PSI 1-6); higher = more stable
# EXPERIMENTAL_SETUP: treatment: DMSO; c terminus: a fixed tail appended
Give 1 (yes) when the value for protein stability index is at least 3. Give 0 (no) when it is less.

>>> qualitative_label("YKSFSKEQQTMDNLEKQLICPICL [TRIM55]")
"0 (no)"
>>> qualitative_label("QEKDQEMERLRELQRASILDMRRD [FBF1]")
"1 (yes)"
>>> qualitative_label("RHLAHSMLQRAIAYQHSGHLESKD [C10orf62]")
"1 (yes)"
>>> qualitative_label("LQVTEDVNSSIKTFFCPNDTYNDM [CLCN6]")
"1 (yes)"
>>> qualitative_label("IAKNLVEKGILTTEKQNFLLFDMT [GOLPH3L]")
"0 (no)"
>>> qualitative_label("LNEMRDQYEKMAEKNRKDAEDWFF [KRT17]")
"1 (yes)"
>>> qualitative_label("YEKKQTLGQNDTGFSCDGTANTFR [BTBD1]")
"1 (yes)"
>>> qualitative_label("EALSVPLSLCVSSHLALPAQHHWE [CLPTM1]")
"0 (no)"
>>> qualitative_label("VFSTMAGLEEADAEVSVISEADPQ [FBF1]")
"1 (yes)"
>>> qualitative_label("ACGGTRDQLFMQEKARQLLGRLKP [MYBL2]")
"1 (yes)"
>>> qualitative_label("PFSFGTLSSWELEAWYEDLQEVLS [DDIT3]")
"0 (no)"
>>> qualitative_label("MAAGGRMEDGSLDITQSIEDDPLL [TMEM192]")
"1 (yes)"
>>> qualitative_label("SGRLMGSPPVPGPSAALTTMQLFS [FBXO28]")
"0 (no)"
>>> qualitative_label("LVGLTVIGAFLNLVVLRFLTMNSE [KCNK9]")
"1 (yes)"
>>> qualitative_label("LVHVMERSLSPSLSSVDMRMTSSP [RAD54B]")
"0 (no)"
>>> qualitative_label("ERTSPGAIHYCASTSEESWTDSEV [SPDEF]")
"1 (yes)"
>>> qualitative_label("LVVAVAAVSCVFLAFVIVLLAHRL [PCDHGA10]")
"0 (no)"
>>> qualitative_label("NDFGVFLCKLFPFLQKSSVGITVL [EDNRA]")
"0 (no)"
>>> qualitative_label("DDRNTACHHGLVADSLQASMEKDA [DLC1]")
"1 (yes)"
>>> qualitative_label("NVNRLNESFRDLQLRLLQAPLQAD [SCARA5]")
"1 (yes)"
>>> qualitative_label("IEKEVFPIMAKEGQLYAMELQGFW [GMPPB]")
"0 (no)"
>>> qualitative_label("PAMAASKALGSDLDSSLASLVGNL [SNAP91]")
"1 (yes)"
>>> qualitative_label("LIIQAGIKEVIFMSDKYHDSDEAT [DCTD]")
"0 (no)"
>>> qualitative_label("NMAGVTFRKFIPKCSKIVIDFDSI [DCTD]")
"0 (no)"
